Give measured koff for each item. Keep answers brief.
assay.target: T1, Extracellular domain (ECD) of the canine IL-4 receptor alpha-AviTag-His Tag (canine)
T1 construct: expressed in CHO cells; also called canine IL-4RA; canine IL4Ra
T1 chain: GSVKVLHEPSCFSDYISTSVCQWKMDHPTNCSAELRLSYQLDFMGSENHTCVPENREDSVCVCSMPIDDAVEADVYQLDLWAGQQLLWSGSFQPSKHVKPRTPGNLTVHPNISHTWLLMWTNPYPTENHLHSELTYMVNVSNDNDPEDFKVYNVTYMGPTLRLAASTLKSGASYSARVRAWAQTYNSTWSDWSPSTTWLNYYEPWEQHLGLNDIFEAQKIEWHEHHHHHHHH
protocol: SPR, IgG captured via anti-dog Fc;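 further: biacore T200 SPR with antibodies captured on CM5 chip bearing anti-dog Fc, 120 s association then 600 s dissociation, double-referenced sensorgrams fitted with 1:1 binding model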

Use these answered entries as a reference point.
binder	koff
GFmix_PTH-H + GFmix3_KTHS-L (antibody, V domains shown) VH: EVQLVESGGDLVKPGGSLRLSCVASGFPFRDYAMTWVRQAPGKGLQWLSLISGSGGKTYYADAVKGRFTISRDNAKNTLYLQMNSLRAEDTAVYYCAVDRLTKTIRPQYYGLWHWGQGTLVTVSS VL: DIVMTQTPLSLSVSPGETASISCRSSKSLTYSIGYNYLDWYMQKPGQSPQGLIYLGSKRASGVSDRFSGSGSGADFTLKISRVEADDAGVYYCMQGLHSPLSFGQGTKLEIKR	7.58e-05 s⁻¹
GFmix_PTH-H + GFmix_THS-L (antibody, V domains shown) VH: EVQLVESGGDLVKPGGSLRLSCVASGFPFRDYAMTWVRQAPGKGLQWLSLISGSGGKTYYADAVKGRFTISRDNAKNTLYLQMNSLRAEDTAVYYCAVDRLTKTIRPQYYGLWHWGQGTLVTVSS VL: DIVMTQTPLSLSVSPGETASISCRSSQSLTYSIGYNYLDWYMQKPGQSPQGLIYLGSKRASGVSDRFSGSGSGADFTLKISRVEADDAGVYYCMQGLHSPLGFGQGTKLEIKR	7.78e-05 s⁻¹

Next:
Consider the binder shown here: 21188-H + 21188-L (antibody, V domains shown) VH: EVQLVESGGDLVKPGGSLRLSCVASGFTFRDYAMTWVRQAPGKGLQWLSLISGSGGKTYYADAVKGRFTISRDNAKNTLYLQMNSLRAEDTAVYYCAVDRLTKTIRPQYYGLWHWGQGTLVTVSS VL: DIVMTQTPLSLSVSPGETASISCRSSQSLTYSIGYNYLDWYMQKPGQSPQGLIYLGSKRASGVSDRFSGSGSGADFTLKISRVEADDAGVYYCMQGLQSPLGFGQGTKLEIKR What is its recorded koff?
9.93e-05 s⁻¹
